# Test system: K4 kissing-loop RNA reporter;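 also: bound reporter read as fluorescence of individual clusters on recovered sequencing chips by microscopy, with normalized cluster intensities fitted with a binding model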
# Assay Info: apparent KD of K4 kissing-loop reporter; higher = weaker reporter binding
# Reported Conditions: Eterna round: R107; input ligand: tryptophan 2.4 mM
Measured apparent KD of K4 kissing-loop reporter accompanies every entry in the list below.
Answer in µM, number only, no unit symbol.

Below are worked cases with known answers.
{"Biosequence": "UAGAUAAUGUAAGAUUAUGAUAAUUGGGAAGGAGCGCGGAAAUUCGCAGGUAGGUCGCCCUAUAAAGUAGUACGAGUGAUGUUCG [6.)]", "Study System": "K4 kissing-loop RNA reporter", "apparent KD of K4 kissing-loop reporter, µM": 0.261}
{"Biosequence": "GAAUCAUGUAGAAGGAGCGUUAGAAGUUAUAGGGAUGAGUGAUGUUUGUGUUAGUAAAUCUGACAGGUAGGUCGCUACAGAAGGA [KL-SSArg B21 #analogue]", "Study System": "K4 kissing-loop RNA reporter", "apparent KD of K4 kissing-loop reporter, µM": 0.308}
{"Biosequence": "CGCCGGAAGGCGAGCGCUCCCACUCCGGAAGGAGCGCCCGGAAGGGCAGGUAGGUCGCCGGAGUGAUGUUCCGGUGGAGGGCUCG [#2 Exclusion - Arginine A Attempt #11 (Inspired by Omei)]", "Study System": "K4 kissing-loop RNA reporter", "apparent KD of K4 kissing-loop reporter, µM": 0.0999}
{"Biosequence": "GUAGCACUUGACAGUGAUGUUGUCAAGGGCAAGGAUAUCACCUCAGUGAGAAGGUGUCCUUGAUAACUGCUACGGGAAUAUCCCA [Omei KL FMN A Exc D v7]", "Study System": "K4 kissing-loop RNA reporter", "apparent KD of K4 kissing-loop reporter, µM": 0.168}
{"Biosequence": "GUCUGUGUACUAGGAUAUGGUUGCAGGCAGUCAGGUCGCCUUUUCGGCGGCCAGUGAUGUUGGUGGCCAGAAGGAGUACGUGAUG [Raorin]", "Study System": "K4 kissing-loop RNA reporter", "apparent KD of K4 kissing-loop reporter, µM": 0.699}

**Q:** For the sequence AGUAUGUAAUAUGGCAUAUUUAGAACUGAAGGAGCGCCGAAUAAGGCAGGUAGGUCGCGGUUUUAUGAGUGAUGUUCUUGUUUAA [KL-SSArg-A24] , report apparent KD of K4 kissing-loop reporter.
**A:** 0.111

* * *

# Tested on: MS2 coat protein
# Assay Info: apparent KD of MS2 coat protein; higher = weaker reporter binding
# Reported Conditions: Eterna round: R101; input ligand: FMN 200 uM
Criterion: apparent KD of MS2 coat protein meeting or surpassing 90 nM. Met: Fulfilled. Not met: Not fulfilled.

{"Biosequence": "GCGGCCCGGGAGAAGGACAUGAGGAUCACCCAUGUCGCCGGGCCCGGGAAACCGGGCCCGGCCAUGUAGGAUAUCCCGGGCCGC [#This is a good prank] (puzzle (switch architecture): Inverted Exclusion NG 2)", "Answer Label": "Not fulfilled"}
{"Biosequence": "AAGUGAAAUCAGAAGGGCUCCAGCAAAGCUGGAGCAGGAUAUGAGGAUCACCCAUGUCACCUGACGGUCGAAACGACCGUCAGG [#SharedSequence - IExNG1: 6-2] (puzzle (switch architecture): Inverted Exclusion NG 1)", "Answer Label": "Fulfilled"}
{"Biosequence": "UUGAAUCGAAACAUGAGGAUCACCCAUGUGUUGUAAUUGACAUAGGAUAUGUAUAUACUUUUAUAAUAGAAGGAUGACGAUACU [S-state NG3 31] (puzzle (switch architecture): Same State NG 3)", "Answer Label": "Not fulfilled"}
{"Biosequence": "ACAGGUCGUGAGAAGGCGGAAAGCACCGUCGAAAGACGGUGCAAUUAAGAUCUUCGAGGAUCACCCGAGGAUAUCACGACCUGA [#SharedSequence - IExNG2: 15] (puzzle (switch architecture): Inverted Exclusion NG 2)", "Answer Label": "Fulfilled"}
{"Biosequence": "GCAGCUAAUGCAGGAUAUCAGCACGUGUAGUGCUGAGAAGGGCACAUGAGGAUACUGACUGUGAUCAAUUAAUAUUAAUGCUGC [salish99#hingeEx3_55-58_004] (puzzle (switch architecture): Exclusion NG 1)", "Answer Label": "Not fulfilled"}
{"Biosequence": "AGGAGAAAUGUAGGAUAUAUAUAUAUAUAUAGGCAAAGCGUAUAUAUAUAUAUAGAAGGACAUGAGGAUCACCCAUGUUUCCCU [#Lowering the energy 12] (puzzle (switch architecture): Small Loop Exclusion NG 1)", "Answer Label": "Not fulfilled"}

**Q:** Test whether the sequence CAGUCGACCAUAACAAGGUCGACUGACUUCUGAGGAUCACCCAGAAGGCGUCACCUAAUAGGUGACGAGGAUAUGGAGUGUAAA [#SharedSequence IExNG# - 7] (puzzle (switch architecture): Inverted Exclusion NG 3) records apparent KD of MS2 coat protein of 90 nM or higher.
**A:** Fulfilled

**Q:** Quick check: does CGCUAUGAUGGGUGUAAUAGAGCAUAGGAUAUGCUUGUACAUGAGGAUCACCCAUGUUAUAUUUUGCAGAAGGGUGCAUUUGCG [JR #DistanceFar #Hairpin #NP SLSSNG3 Sub072] (puzzle (switch architecture): Small Loop Same State NG 3) have apparent KD of MS2 coat protein greater than or equal to 90 nM?
**A:** Fulfilled
